Source of measurements: patent US20240018161A1

Target: CFTR-mediated chloride transport in human intestinal epithelial enteroid cells (Homo sapiens)
Sequence (P13569 with tags, fused parts or gaps DEL508-508): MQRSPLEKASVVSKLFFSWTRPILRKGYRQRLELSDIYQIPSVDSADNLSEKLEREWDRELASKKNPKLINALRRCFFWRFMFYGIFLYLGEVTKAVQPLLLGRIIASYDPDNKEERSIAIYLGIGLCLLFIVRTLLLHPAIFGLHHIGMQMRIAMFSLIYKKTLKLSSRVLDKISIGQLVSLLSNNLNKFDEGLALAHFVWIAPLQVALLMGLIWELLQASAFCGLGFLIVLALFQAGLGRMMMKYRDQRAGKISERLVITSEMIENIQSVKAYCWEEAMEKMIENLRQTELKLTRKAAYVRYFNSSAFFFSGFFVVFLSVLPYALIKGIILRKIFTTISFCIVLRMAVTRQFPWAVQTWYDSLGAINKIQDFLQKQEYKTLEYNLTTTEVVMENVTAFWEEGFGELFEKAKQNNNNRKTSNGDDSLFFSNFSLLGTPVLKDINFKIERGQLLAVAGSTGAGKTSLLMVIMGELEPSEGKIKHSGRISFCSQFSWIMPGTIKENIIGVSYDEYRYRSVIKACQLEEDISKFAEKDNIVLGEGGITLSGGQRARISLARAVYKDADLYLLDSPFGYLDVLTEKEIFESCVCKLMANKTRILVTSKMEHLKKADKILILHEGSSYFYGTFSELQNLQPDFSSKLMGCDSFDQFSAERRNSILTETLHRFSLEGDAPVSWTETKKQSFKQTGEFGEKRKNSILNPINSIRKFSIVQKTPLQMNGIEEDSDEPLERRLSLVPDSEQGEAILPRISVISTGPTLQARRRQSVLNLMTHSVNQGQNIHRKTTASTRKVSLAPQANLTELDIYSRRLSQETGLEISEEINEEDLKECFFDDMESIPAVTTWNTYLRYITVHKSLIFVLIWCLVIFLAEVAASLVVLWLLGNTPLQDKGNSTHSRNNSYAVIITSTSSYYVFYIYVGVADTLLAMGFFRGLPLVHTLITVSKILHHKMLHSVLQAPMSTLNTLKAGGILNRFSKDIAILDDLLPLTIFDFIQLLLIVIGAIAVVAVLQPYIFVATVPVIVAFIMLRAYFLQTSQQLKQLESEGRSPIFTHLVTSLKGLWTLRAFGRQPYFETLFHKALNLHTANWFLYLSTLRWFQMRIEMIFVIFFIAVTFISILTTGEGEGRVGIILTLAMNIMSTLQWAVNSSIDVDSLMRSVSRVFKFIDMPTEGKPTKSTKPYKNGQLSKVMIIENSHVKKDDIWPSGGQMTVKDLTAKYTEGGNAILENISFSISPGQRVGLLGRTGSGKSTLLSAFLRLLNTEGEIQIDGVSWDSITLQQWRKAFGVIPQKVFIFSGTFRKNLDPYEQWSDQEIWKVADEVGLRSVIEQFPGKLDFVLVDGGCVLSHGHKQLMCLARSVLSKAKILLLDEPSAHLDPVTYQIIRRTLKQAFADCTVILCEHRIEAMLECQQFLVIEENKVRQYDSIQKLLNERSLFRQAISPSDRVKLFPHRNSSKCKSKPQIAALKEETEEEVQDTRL
Assay: Membrane potential dye, Enteroid Assay A
Format: cell-based
Conditions: percentage of chloride transport of triple combination control (3 μM N-[(6-amino-2-pyridyl)sulfonyl]-6-(3-fluoro-5-isobutoxy-phenyl)-2-[(4S)-2,2,4-trimethylpyrrolidin-1-yl]pyridine-3-carboxamide based)
reportedEndpoint: Ent. A Max Activity (%)

In the examples that follow, each entry is paired with its recorded Ent. A Max Activity (%).
{"molecule": "Cc1cccc(C)c1-c1cc2nc(n1)NS(=O)(=O)c1cccc(c1)C(=O)N1CCN(Cc3cn(C)nc3C)C[C@@H]1CO2 [Compound 276]", "Ent. A Max Activity (%)": "++ (++ is 30-60%)"}
{"molecule": "Cc1cccc(C)c1-c1cc2nc(n1)NS(=O)(=O)c1cnn(c1)CC(=O)N1CCCC(C1)O2 (centres unmarked) [Compound 354]", "Ent. A Max Activity (%)": "+ (+ is <300%)"}
{"molecule": "Cc1cccc(C)c1-c1cc2nc(n1)NS(=O)(=O)c1cccc(c1)C(=O)N1CCN(CC3CC4C=CC3C4)CC(C1)O2 (centres unmarked) [Compound 59]", "Ent. A Max Activity (%)": "+++ (+++ is >60%)"}
{"molecule": "Cc1cccc(C)c1-c1cc2nc(n1)NS(=O)(=O)c1cccc(c1)C(=O)N1Cc3ccccc3[C@H](C1)O2 (stereo in doubt) [Compound 319]", "Ent. A Max Activity (%)": "+++ (+++ is >60%)"}
{"molecule": "Cc1cccc(C)c1-c1cc2nc(n1)NS(=O)(=O)c1cccc(c1)C(=O)N1CC(CC(C(=O)NCCC(C)(C)C)C1)O2 (centres unmarked) [Compound 321]", "Ent. A Max Activity (%)": "++ (++ is 30-60%)"}
{"molecule": "Cc1cccc(C)c1-c1cc2nc(n1)NS(=O)(=O)c1cccc(c1)C(=O)N1CCN(CCCC(C)(C)C)CC1CO2 (centres unmarked) [Compound 313]", "Ent. A Max Activity (%)": "+++ (+++ is >60%)"}
{"molecule": "CCC(CC)CN1CCN2C(=O)c3cccc(c3)S(=O)(=O)Nc3nc(cc(-c4c(C)cccc4C)n3)OC[C@H]2C1 [Compound 259]", "Ent. A Max Activity (%)": "+++ (+++ is >60%)"}
{"molecule": "Cc1cccc(C)c1-c1cc2nc(n1)NS(=O)(=O)c1cccc(c1)C(=O)N1CCN(CC3CCOCC3)C[C@@H]1CO2 [Compound 295]", "Ent. A Max Activity (%)": "+++ (+++ is >60%)"}
{"molecule": "Cc1cccc(C)c1-c1cc2nc(n1)NS(=O)(=O)c1cccc(c1)C(=O)N1CCN(Cc3ccccc3C#N)CC(C1)O2 (centres unmarked) [Compound 54]", "Ent. A Max Activity (%)": "+++ (+++ is >60%)"}
{"molecule": "Cc1cccc(C)c1-c1cc2nc(n1)NS(=O)(=O)c1cccc(c1)C(=O)N1CC(C)(C)CC1CO2 (centres unmarked) [Compound 368]", "Ent. A Max Activity (%)": "++ (++ is 30-60%)"}

Respectfully, I request Ent. A Max Activity (%) for each entry included below.
1. Cc1cccc(C)c1-c1cc2nc(n1)NS(=O)(=O)c1cccc(c1)C(=O)N1CCN(Cc3ccccn3)CC(C1)O2 (centres unmarked) [Compound 64]
2. Cc1cccc(C)c1-c1cc2nc(n1)NS(=O)(=O)c1cccc(c1)C(=O)N1CCN(Cc3ncccn3)C[C@@H]1CO2 [Compound 286]
3. Cc1cccc(C)c1-c1cc2nc(n1)NS(=O)(=O)c1cccc(c1)C(=O)N1CCN(C)CC1CO2 (centres unmarked) [Compound 324]
4. Cc1cccc(C)c1-c1cc2nc(n1)NS(=O)(=O)c1cccc(c1)C(=O)N1CCN(C(=O)CC(C)(C)C)CC1CO2 (centres unmarked) [Compound 307]

result:
1: ++ (++ is 30-60%); 2: + (+ is <300%); 3: ++ (++ is 30-60%); 4: ++ (++ is 30-60%)
